Molecular target: 5HT2B serotonergic receptor (Homo sapiens, UniProt P41595)
Sequence (P41595 whole entry): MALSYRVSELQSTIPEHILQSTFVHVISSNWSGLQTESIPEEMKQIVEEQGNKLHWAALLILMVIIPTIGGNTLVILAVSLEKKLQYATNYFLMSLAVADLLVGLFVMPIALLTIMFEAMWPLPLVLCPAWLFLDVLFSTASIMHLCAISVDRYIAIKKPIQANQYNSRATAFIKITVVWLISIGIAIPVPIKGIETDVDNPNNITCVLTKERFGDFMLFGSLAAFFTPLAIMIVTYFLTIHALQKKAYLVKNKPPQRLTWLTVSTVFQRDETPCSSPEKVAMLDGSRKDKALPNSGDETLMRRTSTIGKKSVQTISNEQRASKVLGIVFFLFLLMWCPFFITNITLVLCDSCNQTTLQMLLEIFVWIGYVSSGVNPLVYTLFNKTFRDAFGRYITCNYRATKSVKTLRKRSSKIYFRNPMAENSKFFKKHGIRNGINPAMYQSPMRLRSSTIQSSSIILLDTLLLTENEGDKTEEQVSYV
Test: PDSP radioligand binding, 5HT2B
Conditions: read-out: % inhibition at 10 µM; single concentration 10 µM
property: inhibition at 10 µM (%)
Number in %, nothing else.

Measured inhibition at 10 µM, CNC(=O)[C@@]12C[C@@H]1[C@@H](n1cnc3c(NCc4cccc(Cl)c4)nc(C#Cc4ccc(F)cc4)nc31)[C@H](O)[C@@H]2O : 56

Measured inhibition at 10 µM, CNC(=O)[C@@]12C[C@@H]1[C@@H](n1cnc3c(NCc4cccc(Cl)c4)nc(C#Cc4ccccc4Cl)nc31)[C@H](O)[C@@H]2O : 55

Measured inhibition at 10 µM, Fc1ccc(C#Cc2nc(NCc3cccc(Cl)c3)c3nc[nH]c3n2)cc1F : 39

* * *

Biological target: M4 muscarinic acetylcholine receptor (Homo sapiens, UniProt P08173)
Sequence (P08173 whole entry): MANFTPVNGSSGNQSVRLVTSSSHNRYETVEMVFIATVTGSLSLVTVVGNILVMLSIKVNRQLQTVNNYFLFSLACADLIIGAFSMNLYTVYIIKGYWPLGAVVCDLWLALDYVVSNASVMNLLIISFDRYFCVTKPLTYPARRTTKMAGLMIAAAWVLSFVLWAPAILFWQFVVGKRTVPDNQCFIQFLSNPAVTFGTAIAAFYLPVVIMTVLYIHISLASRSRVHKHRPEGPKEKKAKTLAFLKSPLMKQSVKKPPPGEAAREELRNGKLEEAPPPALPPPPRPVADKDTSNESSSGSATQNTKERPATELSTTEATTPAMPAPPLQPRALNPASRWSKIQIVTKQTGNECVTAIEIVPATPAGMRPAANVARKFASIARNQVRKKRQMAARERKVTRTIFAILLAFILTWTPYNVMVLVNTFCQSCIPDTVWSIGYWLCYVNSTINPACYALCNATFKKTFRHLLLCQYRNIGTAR
Test: PDSP radioligand binding, M4
Conditions: read-out: % inhibition at 10 µM; single concentration 10 µM
Parameter: inhibition at 10 µM. Scope: all listed entries.
Number in %, nothing else.

O[C@@H]1[C@H](O)[C@@H]2C[C@@H]2[C@H]1n1cnc2c(NCc3cccc(Cl)c3)nc(C#Cc3ccc(F)c(F)c3)nc21    32
CNC(=O)[C@@]12C[C@@H]1[C@@H](n1cnc3c(NC)nc(C#Cc4ccc(F)c(F)c4)nc31)[C@H](O)[C@@H]2O    0
Clc1cccc(CNc2nc(Cl)nc3[nH]cnc23)c1    0
CNC(=O)[C@@]12C[C@@H]1[C@@H](n1cnc3c(NCc4cccc(Cl)c4)nc(C#Cc4ccc(F)cc4)nc31)[C@H](O)[C@@H]2O    8
CNC(=O)[C@@]12C[C@@H]1[C@@H](n1cnc3c(NCc4cccc(Cl)c4)nc(Cl)nc31)[C@H](O)[C@@H]2O    30

Measured inhibition at 10 µM, CNC(=O)[C@@]12C[C@@H]1[C@@H](n1cnc3c(NCc4cccc(Cl)c4)nc(C#Cc4ccccc4Cl)nc31)[C@H](O)[C@@H]2O : 8

Measured inhibition at 10 µM, O[C@@H]1[C@H](O)[C@@H]2C[C@@H]2[C@H]1n1cnc2c(NC(C3CC3)C3CC3)nc(Cl)nc21 : 7

Measured inhibition at 10 µM, Fc1ccc(C#Cc2nc(NCc3cccc(Cl)c3)c3nc[nH]c3n2)cc1F : 4

Measured inhibition at 10 µM, O[C@@H]1[C@H](O)[C@@H]2C[C@@H]2[C@H]1n1cnc2c(NCc3cccc(Cl)c3)ncnc21 : 4

* * *

Target sequence: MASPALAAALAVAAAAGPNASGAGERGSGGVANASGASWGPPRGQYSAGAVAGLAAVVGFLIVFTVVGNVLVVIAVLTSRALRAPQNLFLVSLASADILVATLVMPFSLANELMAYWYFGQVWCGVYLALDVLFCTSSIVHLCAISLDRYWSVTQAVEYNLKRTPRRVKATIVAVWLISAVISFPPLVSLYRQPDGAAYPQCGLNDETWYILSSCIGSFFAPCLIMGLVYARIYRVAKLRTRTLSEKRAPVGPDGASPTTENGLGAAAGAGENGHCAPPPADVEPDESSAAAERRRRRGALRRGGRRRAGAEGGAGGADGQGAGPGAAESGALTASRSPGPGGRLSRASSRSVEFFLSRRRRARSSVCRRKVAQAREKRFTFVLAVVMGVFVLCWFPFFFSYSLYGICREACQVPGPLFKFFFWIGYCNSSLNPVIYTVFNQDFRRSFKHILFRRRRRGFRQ
property: Ki
Answer by giving the amount and then stating its unit.

Measured Ki, Fc1ccc(C#Cc2nc(NCc3cccc(Cl)c3)c3nc[nH]c3n2)cc1F : 1020 nM

Measured Ki, CNC(=O)[C@@]12C[C@@H]1[C@@H](n1cnc3c(NCc4cccc(Cl)c4)nc(C#Cc4ccc(F)cc4)nc31)[C@H](O)[C@@H]2O : 3640 nM

Measured Ki, O[C@@H]1[C@H](O)[C@@H]2C[C@@H]2[C@H]1n1cnc2c(NCc3cccc(Cl)c3)nc(C#Cc3ccc(F)c(F)c3)nc21 : 5400 nM

Measured Ki, O[C@@H]1[C@H](O)[C@@H]2C[C@@H]2[C@H]1n1cnc2c(NCc3cccc(Cl)c3)ncnc21 : 5360 nM

Measured Ki, CNC(=O)[C@@]12C[C@@H]1[C@@H](n1cnc3c(NCc4cccc(Cl)c4)nc(C#Cc4ccc(F)c(F)c4)nc31)[C@H](O)[C@@H]2O : 2040 nM

Measured Ki, CNC(=O)[C@@]12C[C@@H]1[C@@H](n1cnc3c(NCc4cccc(Cl)c4)nc(C#Cc4ccccc4Cl)nc31)[C@H](O)[C@@H]2O : 1810 nM

* * *

Target: H4 histaminergic receptor (Homo sapiens, UniProt Q9H3N8)
Sequence (Q9H3N8 whole entry): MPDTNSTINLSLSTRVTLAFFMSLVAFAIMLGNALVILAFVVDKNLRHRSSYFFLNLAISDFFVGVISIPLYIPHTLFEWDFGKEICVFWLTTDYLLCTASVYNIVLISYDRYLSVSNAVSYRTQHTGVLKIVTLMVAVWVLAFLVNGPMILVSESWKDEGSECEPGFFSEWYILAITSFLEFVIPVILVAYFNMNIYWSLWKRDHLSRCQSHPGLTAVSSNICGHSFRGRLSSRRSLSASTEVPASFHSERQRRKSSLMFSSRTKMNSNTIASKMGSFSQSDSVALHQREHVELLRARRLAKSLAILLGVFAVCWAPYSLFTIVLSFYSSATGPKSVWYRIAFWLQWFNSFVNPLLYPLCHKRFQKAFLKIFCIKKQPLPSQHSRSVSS
Assay: PDSP radioligand binding, H4
Conditions: read-out: % inhibition at 10 µM; single concentration 10 µM
Parameter: inhibition at 10 µM. Scope: all listed entries.
Answer by giving the amount and then stating its unit.

CNC(=O)[C@@]12C[C@@H]1[C@@H](n1cnc3c(NCc4cccc(Cl)c4)nc(C#Cc4ccc(F)cc4)nc31)[C@H](O)[C@@H]2O    28%
Fc1ccc(C#Cc2nc(NCc3cccc(Cl)c3)c3nc[nH]c3n2)cc1F    5%
O[C@@H]1[C@H](O)[C@@H]2C[C@@H]2[C@H]1n1cnc2c(NC(C3CC3)C3CC3)nc(Cl)nc21    6%

Measured inhibition at 10 µM, CNC(=O)[C@@]12C[C@@H]1[C@@H](n1cnc3c(NCc4cccc(Cl)c4)nc(C#Cc4ccccc4Cl)nc31)[C@H](O)[C@@H]2O : 9%

Measured inhibition at 10 µM, O[C@@H]1[C@H](O)[C@@H]2C[C@@H]2[C@H]1n1cnc2c(NCc3cccc(Cl)c3)ncnc21 : 0%

Measured inhibition at 10 µM, Clc1cccc(CNc2nc(Cl)nc3[nH]cnc23)c1 : 5%

* * *

Molecular target: σ1 receptor (Cavia porcellus)
Sequence (Q60492 whole entry): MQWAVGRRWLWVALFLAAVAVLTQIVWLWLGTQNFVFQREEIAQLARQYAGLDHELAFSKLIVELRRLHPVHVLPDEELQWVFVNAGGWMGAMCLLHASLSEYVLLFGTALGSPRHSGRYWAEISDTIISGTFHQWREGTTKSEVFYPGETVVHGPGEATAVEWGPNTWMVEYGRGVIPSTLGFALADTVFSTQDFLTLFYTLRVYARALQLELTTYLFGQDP
Assay: PDSP radioligand binding, σ1
Conditions: read-out: % inhibition at 10 µM; single concentration 10 µM
Parameter: inhibition at 10 µM. Scope: all listed entries.
Answer by giving the amount and then stating its unit.

A selection of reference data follows.
CNC(=O)[C@@]12C[C@@H]1[C@@H](n1cnc3c(NCc4cccc(Cl)c4)nc(C#Cc4ccc(F)cc4)nc31)[C@H](O)[C@@H]2O [Compound 2]    2%
O[C@@H]1[C@H](O)[C@@H]2C[C@@H]2[C@H]1n1cnc2c(NCc3cccc(Cl)c3)ncnc21 [Compound 7]    29%
CNC(=O)[C@@]12C[C@@H]1[C@@H](n1cnc3c(NC)nc(C#Cc4ccc(F)c(F)c4)nc31)[C@H](O)[C@@H]2O [Compound 5]    10%
Fc1ccc(C#Cc2nc(NCc3cccc(Cl)c3)c3nc[nH]c3n2)cc1F [Compound 8]    0%

Measured inhibition at 10 µM, CNC(=O)[C@@]12C[C@@H]1[C@@H](n1cnc3c(NCc4cccc(Cl)c4)nc(C#Cc4ccccc4Cl)nc31)[C@H](O)[C@@H]2O [Compound 3] : 33%

Measured inhibition at 10 µM, CNC(=O)[C@@]12C[C@@H]1[C@@H](n1cnc3c(NCc4cccc(Cl)c4)nc(Cl)nc31)[C@H](O)[C@@H]2O [Compound 4] : 2%

Measured inhibition at 10 µM, Clc1cccc(CNc2nc(Cl)nc3[nH]cnc23)c1 [Compound 9] : 0%

Measured inhibition at 10 µM, O[C@@H]1[C@H](O)[C@@H]2C[C@@H]2[C@H]1n1cnc2c(NCc3cccc(Cl)c3)nc(C#Cc3ccc(F)c(F)c3)nc21 [Compound 6] : 16%

Measured inhibition at 10 µM, O[C@@H]1[C@H](O)[C@@H]2C[C@@H]2[C@H]1n1cnc2c(NC(C3CC3)C3CC3)nc(Cl)nc21 [Compound 10] : 9%

* * *

Parameter: inhibition at 10 µM. Scope: all listed entries.
Biological target: α1D adrenergic receptor (Homo sapiens)
Sequence (P25100 1-572): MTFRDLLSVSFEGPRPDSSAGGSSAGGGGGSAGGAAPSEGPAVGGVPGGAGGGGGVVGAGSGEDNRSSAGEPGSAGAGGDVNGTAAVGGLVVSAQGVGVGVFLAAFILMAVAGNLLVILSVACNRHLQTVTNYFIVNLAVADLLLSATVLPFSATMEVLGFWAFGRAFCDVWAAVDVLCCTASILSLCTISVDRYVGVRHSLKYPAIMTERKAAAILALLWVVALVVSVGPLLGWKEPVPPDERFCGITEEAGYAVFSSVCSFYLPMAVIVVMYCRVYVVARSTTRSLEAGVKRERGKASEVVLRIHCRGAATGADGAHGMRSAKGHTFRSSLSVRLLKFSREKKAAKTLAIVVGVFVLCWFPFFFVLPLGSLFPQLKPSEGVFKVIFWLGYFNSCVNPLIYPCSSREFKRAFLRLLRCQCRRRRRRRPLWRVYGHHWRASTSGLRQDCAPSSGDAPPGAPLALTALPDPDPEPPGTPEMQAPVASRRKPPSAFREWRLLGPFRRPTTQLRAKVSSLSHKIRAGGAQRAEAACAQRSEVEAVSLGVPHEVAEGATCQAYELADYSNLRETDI
Assay: PDSP radioligand binding, α1D
Details: read-out: % inhibition at 10 µM; single concentration 10 µM
Number in %, nothing else.

Measured inhibition at 10 µM, Clc1cccc(CNc2nc(Cl)nc3[nH]cnc23)c1 : 0

Measured inhibition at 10 µM, O[C@@H]1[C@H](O)[C@@H]2C[C@@H]2[C@H]1n1cnc2c(NC(C3CC3)C3CC3)nc(Cl)nc21 : 13

Measured inhibition at 10 µM, CNC(=O)[C@@]12C[C@@H]1[C@@H](n1cnc3c(NCc4cccc(Cl)c4)nc(C#Cc4ccccc4Cl)nc31)[C@H](O)[C@@H]2O : 20

Measured inhibition at 10 µM, Fc1ccc(C#Cc2nc(NCc3cccc(Cl)c3)c3nc[nH]c3n2)cc1F : 0

Measured inhibition at 10 µM, CNC(=O)[C@@]12C[C@@H]1[C@@H](n1cnc3c(NCc4cccc(Cl)c4)nc(C#Cc4ccc(F)cc4)nc31)[C@H](O)[C@@H]2O : 6

Measured inhibition at 10 µM, CNC(=O)[C@@]12C[C@@H]1[C@@H](n1cnc3c(NCc4cccc(Cl)c4)nc(Cl)nc31)[C@H](O)[C@@H]2O : 0
